- EXPERIMENTAL_TARGET: FPR2 (Homo sapiens, UniProt P25090)
- Sequence (P25090 1-351): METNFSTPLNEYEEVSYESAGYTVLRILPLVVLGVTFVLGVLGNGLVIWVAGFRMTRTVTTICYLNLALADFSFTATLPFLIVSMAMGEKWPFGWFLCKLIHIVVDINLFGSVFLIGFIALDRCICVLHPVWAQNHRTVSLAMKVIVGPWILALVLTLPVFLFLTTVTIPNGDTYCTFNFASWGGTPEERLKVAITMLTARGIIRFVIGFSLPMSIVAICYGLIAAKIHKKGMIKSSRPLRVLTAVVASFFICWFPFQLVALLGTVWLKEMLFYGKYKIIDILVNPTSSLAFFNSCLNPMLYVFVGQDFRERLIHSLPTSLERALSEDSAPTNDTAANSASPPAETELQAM
- EXPERIMENTAL_DETAILS: Change in calcium activity by peptide (Fura-2) in RBL cells overexpressing FPR2
- STUDY_CONDITIONS: calcium activity (Fura-2), graded per Table 3, read-out: EC50 for [Ca^2+] FPR2
pEC50: −log10 of the molar value. Peptide text beside a SMILES is read from it.
VALUE_TYPE: pEC50

CCCCCCCC(=O)N[C@H](C(=O)N[C@@H](CCCCN)C(=O)N[C@@H](Cc1ccc(O)cc1)C(=O)N[C@@H](CCCCN)C(=O)N1CCC[C@H]1C(=O)N[C@H](CCSC)C(N)=O)[C@@H](C)CC [Peptide 145] (HELM PEPTIDE1{[CCCCCCCC(=O)[*:2]].I.K.Y.K.P.[dM].[am]}$$$$V2.0); 7.00 to 7.96
CCCC(=O)N1CCC[C@H]1C(=O)N[C@@H](CCSC)C(=O)N[C@@H](CCCNC(=N)N)C(=O)N[C@@H](Cc1ccc(O)cc1)C(=O)N[C@@H](CCCCN)C(=O)N[C@@H](Cc1ccc(O)cc1)C(=O)N[C@H](CCSC)C(N)=O [Peptide 47] (HELM PEPTIDE1{[CCCC(=O)[*:2]].P.M.R.Y.K.Y.[dM].[am]}$$$$V2.0); > 8.00
CSCC[C@@H](NC(=O)[C@H](Cc1ccc(O)cc1)NC(=O)[C@H](Cc1ccc(O)cc1)NC(=O)[C@H](Cc1ccc(O)cc1)NC(=O)[C@H](CCCNC(=N)N)NC(=O)[C@H](Cc1c[nH]c2ccccc12)NC(C)=O)C(N)=O [Peptide 124] (HELM PEPTIDE1{[ac].W.R.Y.Y.Y.[dM].[am]}$$$$V2.0); 7.00 to 7.96
CCCCCCCC(=O)N[C@@H](CCSC)C(=O)N[C@@H](CCCCN)C(=O)N[C@@H](Cc1ccc(O)cc1)C(=O)N[C@@H](Cc1c[nH]c2ccccc12)C(=O)N1CCC[C@H]1C(=O)N[C@H](CCSC)C(N)=O [Peptide 116] (HELM PEPTIDE1{[CCCCCCCC(=O)[*:2]].M.K.Y.W.P.[dM].[am]}$$$$V2.0); 7.00 to 7.96
CCCCCCCC(=O)N[C@@H](Cc1c[nH]cn1)C(=O)N[C@@H](CCSC)C(=O)N[C@@H](CCCNC(=N)N)C(=O)N[C@@H](Cc1ccc(O)cc1)C(=O)N[C@@H](CCCCN)C(=O)N1CCC[C@H]1C(=O)N[C@H](CCSC)C(N)=O [Peptide 61] (HELM PEPTIDE1{[CCCCCCCC(=O)[*:2]].H.M.R.Y.K.P.[dM].[am]}$$$$V2.0); > 8.00

Just so you know, measured pEC50 for CSCC[C@@H](NC(=O)[C@H](Cc1ccc(O)cc1)NC(=O)[C@H](Cc1c[nH]c2ccccc12)NC(=O)[C@H](Cc1ccc(O)cc1)NC(=O)[C@H](CCCNC(=N)N)NC(=O)[C@H](Cc1c[nH]c2ccccc12)NC(=O)[C@@H](N)CCCNC(=N)N)C(N)=O [Peptide 77] (HELM PEPTIDE1{R.W.R.Y.W.Y.[dM].[am]}$$$$V2.0) came out at 7.00 to 7.96
